Record form. Attribute: folding stability dG. Fill in for each entry.
B1: r16_88_TrROS_Hall (parent)
chain: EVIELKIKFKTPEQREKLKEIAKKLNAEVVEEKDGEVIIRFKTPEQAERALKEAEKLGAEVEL

# Variants of: B1
# assayText: folding stability dG (cDNA display proteolysis); higher = more stable
# statedConditions: PBS, room temperature
Give bare numbers, in kcal/mol.

stdin: # input variant: "E32H" ; wanted: its folding stability dG
stdout: 4.49

Report folding stability dG for each item below.
1. K6V
2. D34F
3. V29K
4. R40H
5. K23M
6. K10I
7. E53C

stdout:
[4.37, 4.34, 4.39, 4.04, 4.54, 4.09, 4.4]
